# ASSAY_EXPLANATION: Fluorescence titration of labeled ParM with ADP
# Type: binding
# EXPERIMENTAL_CONDITIONS: Table 2; fluorescence titration, 20° C.
VALUE_KIND: Kd
Field note: include the unit after the figure.

Reference set, count: 2
T175F: MDCC-ParM (His6/I27C/T175F/C287A) (conjugate, UniProt P11904 1-320, looked up, variant I27C T175F C287A, MDCC label; His6 tag) Plasmid segregation protein …: MLVFIDDGSTNIKLQWQESDGTIKQHCSPNSFKREWAVSFGDKKVFNYTLNGEQYSFDPISPDAVVTTNIAWQYSDVNVVAVHHALLTSGLPVSEVDIVCTLPLTEYYDRNNQPNTENIERKKANFRKKITLNGGDTFTIKDVKVMPESIPAGYEVLQELDELDSLLIIDLGGTFLDISQVMGKLSGISKIYGDSSLGVSLVTSAVKDALSLARTKGSSYLADDIIIHRKDNNYLKQRINDENKISIVTEAMNEALRKLEQRVLNTLNEFSGYTHVMVIGGGAELIADAVKKHTQIRDERFFKTNNSQYDLVNGMYLIGN ... 4700 nM
T175H: MDCC-ParM (His6/I27C/T175H/C287A) (conjugate, UniProt P11904 1-320, looked up, variant I27C T175H C287A, MDCC label; His6 tag) Plasmid segregation protein …: MLVFIDDGSTNIKLQWQESDGTIKQHCSPNSFKREWAVSFGDKKVFNYTLNGEQYSFDPISPDAVVTTNIAWQYSDVNVVAVHHALLTSGLPVSEVDIVCTLPLTEYYDRNNQPNTENIERKKANFRKKITLNGGDTFTIKDVKVMPESIPAGYEVLQELDELDSLLIIDLGGTHLDISQVMGKLSGISKIYGDSSLGVSLVTSAVKDALSLARTKGSSYLADDIIIHRKDNNYLKQRINDENKISIVTEAMNEALRKLEQRVLNTLNEFSGYTHVMVIGGGAELIADAVKKHTQIRDERFFKTNNSQYDLVNGMYLIGN ... 400 nM

**Q:** Value lookup for Kd; key = S9Q: MDCC-ParM (His6/S9Q/I27C/C287A) (conjugate, UniProt P11904 1-320, looked up, variant S9Q I27C C287A, MDCC label; His6 tag) Plasmid segregation protein …: MLVFIDDGQTNIKLQWQESDGTIKQHCSPNSFKREWAVSFGDKKVFNYTLNGEQYSFDPISPDAVVTTNIAWQYSDVNVVAVHHALLTSGLPVSEVDIVCTLPLTEYYDRNNQPNTENIERKKANFRKKITLNGGDTFTIKDVKVMPESIPAGYEVLQELDELDSLLIIDLGGTTLDISQVMGKLSGISKIYGDSSLGVSLVTSAVKDALSLARTKGSSYLADDIIIHRKDNNYLKQRINDENKISIVTEAMNEALRKLEQRVLNTLNEFSGYTHVMVIGGGAELIADAVKKHTQIRDERFFKTNNSQYDLVNGMYLIGN
**A:** 1660 nM

# credit: patent US8703913B2
